target: human serum polyclonal antibodies; test: cross-interaction chromatography (CIC), column with human serum polyclonal IgG
property-label: IgG column RT (min)
The reply should contain only the number, in min.

anti-human MCT1 antibody Ab12 (antibody, human IgG1, kappa, V domains shown) VH: QVQLVQSGAEVKKPGASVKVSCTVSGRSLTNYHLVWVRQAPGQGLEWMGFIRSSGNTEYNSEFKSRVTMTRDTSTSTVYMELSSLRSEDTAVYYCARNRWYHGTYYSPGYYVMDAWGQGTLVTVSS VL: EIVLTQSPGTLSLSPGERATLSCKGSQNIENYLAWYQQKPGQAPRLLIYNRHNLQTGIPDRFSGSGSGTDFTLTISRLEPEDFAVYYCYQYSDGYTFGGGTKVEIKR : 5.29

Request the reported IgG column RT associated with anti-human MCT1 antibody Ab11 (antibody, human IgG1, kappa, V domains shown) VH: QVQLVQSGAEVKKPGASVKVSCTVSGRSLTNYHLQWVRQAPGQGLEWMGFIRSSGNTEYNSEFKSRVTMTRDTSTSTVYMELSSLRSEDTAVYYCARNRWHHGTYYSPGYYVMDAWGQGTLVTVSS VL: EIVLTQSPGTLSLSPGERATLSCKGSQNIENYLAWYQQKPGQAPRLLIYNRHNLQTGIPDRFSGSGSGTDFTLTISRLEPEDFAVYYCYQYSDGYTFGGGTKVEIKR 5.33

Request the reported IgG column RT associated with anti-human MCT1 antibody Ab13 (antibody, human IgG1, kappa, V domains shown) VH: QVQLVQSGAEVKKPGASVKVSCTVSGRSLTNYHLQWVRQAPGQGLEWMGFIRSSGNTEYNSEFKSRVTMTRDTSTSTVYMELSSLRSEDTAVYYCARNRWRHGTYYSPGYYVMDAWGQGTLVTVSS VL: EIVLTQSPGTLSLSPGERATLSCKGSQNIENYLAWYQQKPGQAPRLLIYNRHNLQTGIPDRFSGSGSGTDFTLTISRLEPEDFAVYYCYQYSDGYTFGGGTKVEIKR 5.33

Request the reported IgG column RT associated with anti-human MCT1 antibody Ab8 (antibody, human IgG1, kappa, V domains shown) VH: QVQLVQSGAEVKKPGASVKVSCTVSGRSLTNYHLQWVRQAPGQGLEWMGFIRSSGNTIYNSEFKSRVTMTRDTSTSTVYMELSSLRSEDTAVYYCARNRWYHGTYYSPGYYVMDAWGQGTLVTVSS VL: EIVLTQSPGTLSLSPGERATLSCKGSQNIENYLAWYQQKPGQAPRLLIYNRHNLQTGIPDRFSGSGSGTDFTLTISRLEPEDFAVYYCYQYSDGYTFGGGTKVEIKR 5.34

Request the reported IgG column RT associated with anti-human MCT1 antibody Ab1 (antibody, human IgG1, kappa, V domains shown) VH: QVQLVQSGAEVKKPGASVKVSCTVSGFSLTNYHLQWVRQAPGQGLEWMGFIRSSGNTEYNSEFKSRVTMTRDTSTSTVYMELSSLRSEDTAVYYCARNSWYHGTYYSPGYYVMDAWGQGTLVTVSS VL: EIVLTQSPGTLSLSPGERATLSCKGSQNINNYLAWYQQKPGQAPRLLIYNRHNLQTGIPDRFSGSGSGTDFTLTISRLEPEDFAVYYCYQYSDGYTFGGGTKVEIKR 5.07

Request the reported IgG column RT associated with anti-human MCT1 antibody Ab15 (antibody, human IgG1, kappa, V domains shown) VH: QVQLVQSGAEVKKPGASVKVSCTVSGRSLTNYHLQWVRQAPGQGLEWMGFIRSSGNTEYNSEFKSRVTMTRDTSTSTVYMELSSLRSEDTAVYYCARNLWYHGTYYSPGYYVMDAWGQGTLVTVSS VL: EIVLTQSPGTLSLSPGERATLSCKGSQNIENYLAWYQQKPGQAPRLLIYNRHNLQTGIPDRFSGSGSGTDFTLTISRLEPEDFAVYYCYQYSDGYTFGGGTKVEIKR 5.27

Request the reported IgG column RT associated with anti-human MCT1 antibody Ab16 (antibody, human IgG1, kappa, V domains shown) VH: QVQLVQSGAEVKKPGASVKVSCTRSGRSLTNYHLQWVRQAPGQGLEWMGFIRSSGNTEYNSEFKSRVTMTRDTSTSTVYMELSSLRSEDTAVYYCARNRWYHGTYYSPGYYVMDAWGQGTLVTVSS VL: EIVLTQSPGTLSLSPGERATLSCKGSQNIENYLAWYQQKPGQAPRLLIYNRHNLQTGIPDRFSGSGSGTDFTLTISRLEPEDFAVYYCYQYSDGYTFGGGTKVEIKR 5.4
